- System: BEN
- Test description: relative viability (nuclei count vs DMSO), 5 days (fraction); higher = more cells survive
- Measurement setup: first compound 4 µM
Reported values of relative viability for individual entries
The answer should be a number; do not append a unit.

| Compound | relative viability |
| --- | --- |
| COc1cc(N2CCC(C(N)=O)CC2)ccc1Nc1nc(N)c(Cl)c(Nc2ccccc2S(=O)(=O)C(C)C)n1 [HG-5-88-01] + CC(=O)Nc1cccc(-n2c(=O)n(C3CC3)c(=O)c3c(Nc4ccc(I)cc4F)n(C)c(=O)c(C)c32)c1 [Trametinib] (partner 0.02 µM) | 1.06 |
| C[C@@H]1CN(CC(=O)Nc2ccc3c(c2)Cc2cccc(-c4cc(=O)cc(N5CCOCC5)o4)c2S3)C[C@H](C)O1 + O=C(CCCCCCC(=O)Nc1ccccc1)NO [Vorinostat] (partner 1 µM) | 0.625 |
| COc1cc(N2CCC(C(N)=O)CC2)ccc1Nc1nc(N)c(Cl)c(Nc2ccccc2S(=O)(=O)C(C)C)n1 [HG-5-88-01] + Cc1nc(NC(=O)N2CCC[C@H]2C(N)=O)sc1-c1ccnc(C(C)(C)C(F)(F)F)c1 [Alpelisib] (partner 2 µM) | 1.15 |
| COc1cc(N2CCC(C(N)=O)CC2)ccc1Nc1nc(N)c(Cl)c(Nc2ccccc2S(=O)(=O)C(C)C)n1 [HG-5-88-01] + COc1cc2c(Oc3ccc(NC(=O)C4(C(=O)Nc5ccc(F)cc5)CC4)cc3F)ccnc2cc1OCCCN1CCOCC1 [Foretinib] (partner 0.25 µM) | 0.448 |
| COc1cc(N2CCC(C(N)=O)CC2)ccc1Nc1nc(N)c(Cl)c(Nc2ccccc2S(=O)(=O)C(C)C)n1 [HG-5-88-01] + CCNC(=O)c1noc(-c2cc(C(C)C)c(O)cc2O)c1-c1ccc(CN2CCOCC2)cc1 [Luminespib] (partner 0.01 µM) | 0.234 |
| Clc1ccc(Nc2nnc(Cc3ccncc3)c3ccccc23)cc1 [Vatalanib] + C[C@@H](Oc1cc(-c2cnn(C3CCNCC3)c2)cnc1N)c1c(Cl)ccc(F)c1Cl [Crizotinib] (partner 1 µM) | 1.01 |

Problem: Note down relative viability recorded for C[C@@H]1CN(CC(=O)Nc2ccc3c(c2)Cc2cccc(-c4cc(=O)cc(N5CCOCC5)o4)c2S3)C[C@H](C)O1 + CS(=O)(=O)CCNCc1ccc(-c2ccc3ncnc(Nc4ccc(OCc5cccc(F)c5)c(Cl)c4)c3c2)o1 [Lapatinib] (partner 2 µM)
Solution: 0.745

Problem: Identify the reported relative viability for the following entry. Clc1ccc(Nc2nnc(Cc3ccncc3)c3ccccc23)cc1 [Vatalanib] + Nc1ncn([C@H]2C[C@H](O)[C@@H](CO)O2)c(=O)n1 [Decitabine] (partner 2 µM)
Solution: 0.774

====

- System: NCI-H1975
- Test description: relative viability (nuclei count vs DMSO), 5 days (fraction); higher = more cells survive
- Measurement setup: first compound 0.3162 µM
Measured endpoint: relative viability
// keep it numeric: no unit symbol after the value

Below: 2 compounds and their reported relative viability.
| Compound | Experimental value |
| --- | --- |
| CC(C)Oc1cc(Nc2nc(N[C@@H](C)c3ccc(F)cn3)ncc2Cl)n[nH]1 [AZ23] + Cc1nc(Nc2ncc(C(=O)Nc3c(C)cccc3Cl)s2)cc(N2CCN(CCO)CC2)n1 [Dasatinib] (partner 0.075 µM) | 0.326 |
| CC(C)Oc1cc(Nc2nc(N[C@@H](C)c3ccc(F)cn3)ncc2Cl)n[nH]1 [AZ23] + CC1(C)CCC(c2ccc(Cl)cc2)=C(CN2CCN(c3ccc(C(=O)NS(=O)(=O)c4ccc(N[C@H](CCN5CCOCC5)CSc5ccccc5)c(S(=O)(=O)C(F)(F)F)c4)cc3)CC2)C1 [Navitoclax] (partner 0.5 µM) | 1.2 |

Problem: State its relative viability: CC(C)Oc1cc(Nc2nc(N[C@@H](C)c3ccc(F)cn3)ncc2Cl)n[nH]1 [AZ23] + O=C(c1cc(Cc2n[nH]c(=O)c3ccccc23)ccc1F)N1CCN(C(=O)C2CC2)CC1 [Olaparib] (partner 8 µM)
Solution: 0.822
